From: patent US5985616

- Study Target: human NPY Y5 receptor (human, UniProt Q15761)
- Protocol Summary: competition with 0.1 nM [125I]PYY, membranes of COS1 cells transiently expressing the receptor
Measured Endpoint: Ki (nM)
One number for each entry, in nM.

State, in one line, measured Ki of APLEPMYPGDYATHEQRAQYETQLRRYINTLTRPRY (ligand) [Rat PP]
60
